Reference for the values: ChEMBL document CHEMBL1135616

STUDY SYSTEM: Squalene synthase (Homo sapiens)
ASSAY PROTOCOL: Inhibition of squalene synthase from human hepatoma cells (HepG2)
pIC50: −log10 of the molar value.
READOUT TYPE: pIC50

{"columns": ["MOLECULE", "MEASUREMENT"],
 "data": [
  ["COc1cccc([C@H]2O[C@H](CC(=O)NCCCCC(=O)O)C(=O)N(CC(C)(C)CO)c3ccc(Cl)cc32)c1OC", 7.42],
  ["COc1cccc([C@H]2O[C@H](CC(=O)N3CCC(CC(=O)O)CC3)C(=O)N(CC(C)(C)CO)c3ccc(Cl)cc32)c1OC", 7.35],
  ["COc1cccc([C@H]2O[C@H](CC(=O)NCCC(=O)O)C(=O)N(CC(C)(C)CO)c3ccc(Cl)cc32)c1OC", 7.82],
  ["COc1cccc([C@H]2O[C@H](CC(=O)NC(CC(C)C)C(=O)O)C(=O)N(CC(C)(C)CO)c3ccc(Cl)cc32)c1OC (stereo partly specified)", 7.55],
  ["COc1cccc([C@H]2O[C@H](CC(=O)NCCCC(=O)O)C(=O)N(CC(C)(C)CO)c3ccc(Cl)cc32)c1OC", 7.49],
  ["COc1cccc([C@H]2O[C@H](CC(=O)N[C@@H](C)C(=O)O)C(=O)N(CC(C)(C)CO)c3ccc(Cl)cc32)c1OC", 7.68]
]}

###

STUDY SYSTEM: UniProtKB P37268
Sequence (P37268 whole entry): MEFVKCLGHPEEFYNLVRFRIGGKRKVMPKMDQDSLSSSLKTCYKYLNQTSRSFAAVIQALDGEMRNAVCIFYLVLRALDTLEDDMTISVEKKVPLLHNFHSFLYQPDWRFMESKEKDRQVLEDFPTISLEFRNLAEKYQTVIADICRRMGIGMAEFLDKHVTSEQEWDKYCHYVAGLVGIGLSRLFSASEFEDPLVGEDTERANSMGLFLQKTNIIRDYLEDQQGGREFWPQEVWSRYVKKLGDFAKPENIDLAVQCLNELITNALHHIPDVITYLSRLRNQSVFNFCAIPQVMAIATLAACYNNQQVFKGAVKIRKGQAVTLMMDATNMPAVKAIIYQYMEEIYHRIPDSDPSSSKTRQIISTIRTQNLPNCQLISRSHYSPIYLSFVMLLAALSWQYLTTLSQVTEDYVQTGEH
ASSAY PROTOCOL: Inhibition of squalene synthase from human hepatoma cells (HepG2)
Catalogue of IC50 values

{"columns": ["LINE NOTATION", "IC50 [nM]"],
 "data": [
  ["COc1cccc([C@H]2O[C@H](CC(=O)N(C)CC(=O)O)C(=O)N(CC(C)(C)CO)c3ccc(Cl)cc32)c1OC", 18],
  ["CCCC(=O)OCC(C)(C)CN1C(=O)[C@@H](CC(=O)N2CCC(CC(=O)O)CC2)O[C@H](c2cccc(OC)c2OC)c2cc(Cl)ccc21", 93],
  ["CCC(=O)OCC(C)(C)CN1C(=O)[C@@H](CC(=O)N2CCC(CC(=O)O)CC2)O[C@H](c2cccc(OC)c2OC)c2cc(Cl)ccc21", 87],
  ["COc1cccc([C@H]2O[C@H](CC(=O)N3CCC(CCC(=O)O)CC3)C(=O)N(CC(C)(C)CO)c3ccc(Cl)cc32)c1OC", 61]
]}

###

STUDY SYSTEM: Squalene synthase (Homo sapiens, UniProt P37268)
ASSAY PROTOCOL: Inhibitory activity against squalene synthase derived from human hepatoma cells (HepG2)
READOUT TYPE: IC50

{"columns": ["LINE NOTATION", "STUDY SYSTEM", "MEASUREMENT"],
 "data": [
  ["COc1cccc([C@H]2O[C@H](CC(=O)N3CCC(CC(=O)O)CC3)C(=O)N(CC(C)(C)COCOC(=O)C(C)(C)C)c3ccc(Cl)cc32)c1OC", "Squalene synthase (Homo sapiens, UniProt P37268)", "471 nM"],
  ["COc1cccc([C@H]2O[C@H](CC(=O)N3CCC(CC(=O)O)CC3)C(=O)N(CC(C)(C)COC(=O)C(C)C)c3ccc(Cl)cc32)c1OC", "Squalene synthase (Homo sapiens, UniProt P37268)", "89 nM"]
]}
